- assay-system: T1, 006 PSMA Fab (biotinylated (site not stated))
- T1 construct: also called Anti-PSMA Fab
- test: clonal phage ELISA; biotinylated PSMA Fab on neutravidin plate pre-incubated with PSMA antigen as competitor, anti-M13-HRP detection
Give Phage binding ELISA signal, Anti-PSMA Fab in the presence of PSMA antigen for every item shown.
One number for each entry.

Reference set, count: 5
binder | data-value
DYWYCQPAWMCTGL (tested as crude clonal phage supernatant) [Phage-3892] | 0.0585
TEPACVPPWMCVGW (tested as crude clonal phage supernatant) [Phage-3884] | 0.128
LQIRCQPVWMCHGF (tested as crude clonal phage supernatant) [Phage-3888] | 0.0801
DQHACRPEWMCVGF (tested as crude clonal phage supernatant) [Phage-3890] | 0.0789
EWIMCTPPWMCHGF (tested as crude clonal phage supernatant) [Phage-3895] | 0.0638

Okay, here is my list. What is Phage binding ELISA signal, Anti-PSMA Fab in the presence of PSMA antigen for each of these?
1. GMVRCVPDWMCYGF (tested as crude clonal phage supernatant) [Phage-3885]
2. TEHQCVPAWMCGGF (tested as crude clonal phage supernatant) [Phage-3886]
3. LVPRCLPEWMCTGF (tested as crude clonal phage supernatant) [Phage-3893]
4. PDVHCVPRWMCDGL (tested as crude clonal phage supernatant) [Phage-3896]
5. LTLKCAPAWMCNGF (tested as crude clonal phage supernatant) [Phage-3897]
6. VVYTCVPSWMCTGL (tested as crude clonal phage supernatant) [Phage-3891]

OUTPUT:
[0.0613, 0.0809, 0.0848, 0.0633, 0.0619, 0.062]

Give Phage binding ELISA signal, Anti-PSMA Fab in the presence of PSMA antigen for each listed item.
1. DLQMCLPKWMCVGF (tested as crude clonal phage supernatant) [Phage-3894]
2. IDTLCVPWWMCSGF (tested as crude clonal phage supernatant) [Phage-3889]
3. ILRHCTPEWMCIGL (tested as crude clonal phage supernatant) [Phage-3887]

OUTPUT:
1: 0.0639; 2: 0.0774; 3: 0.0689
